Test system: BPH-1 (Non-Cancerous);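 note: after 72 h of two-drug dosing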
test details: Bliss excess, mean over the matrix (fraction); higher = more synergy
test readout: Bliss excess
Answers are plain numbers.

Examples with their reported Bliss excess follow.
compound	Bliss excess
Cn1cnc2c(F)c(Nc3ccc(Br)cc3Cl)c(C(=O)NOCCO)cc21 [Selumetinib] + C[C@@H]1COCCN1C2=NC(=NC(=C2)C3(CC3)[S@](=N)(=O)C)C4=C5C=CNC5=NC=C4 [AZD6738] (first compound max 10 µM, 7x7, partner max 10 µM)	0.108
Cc1c2c(nn1C)CSCc1cc(n(C)n1)CSc1cc(c3ccccc3c1)OCCCc1c(C(=O)O)n(C)c3c-2c(Cl)ccc13 [AZD5991] + C=CCn1c(=O)c2cnc(Nc3ccc(N4CCN(C)CC4)cc3)nc2n1-c1cccc(C(C)(C)O)n1 [AZD1775] (first compound max 1 µM, partner max 1 µM)	-0.0071
COc1cccc2c1C(=O)c1c(O)c3c(c(O)c1C2=O)C[C@@](O)(C(=O)CO)C[C@@H]3O[C@H]1C[C@H](N)[C@H](O)[C@H](C)O1 [Doxorubicin] + Cc1cc2ncnn2cc1Nc1ncc2c(n1)n(C1CCOCC1)c(=O)n2C [AZD7648] (first compound max 1 µM, 7x7, partner max 10 µM)	0.0736

Turning now to a further compound:
Task: I have this compound here, CC(=O)c1c(C)c2cnc(Nc3ccc(N4CCNCC4)cn3)nc2n(C2CCCC2)c1=O [Palbociclib] + Cc1c2c(nn1C)CSCc1cc(n(C)n1)CSc1cc(c3ccccc3c1)OCCCc1c(C(=O)O)n(C)c3c-2c(Cl)ccc13 [AZD5991] (first compound max 10 µM, 7x7, partner max 1 µM) , and I need its recorded Bliss excess.
Output: -0.0476

The values you see were collected from the supplement of paper PMC11061612.
